- target.desc: JFH-1 NS3 (Hepatitis C virus genotype 2a strain …, UniProt Q99IB8 1031-1661)
- Sequence (Q99IB8 1031-1661): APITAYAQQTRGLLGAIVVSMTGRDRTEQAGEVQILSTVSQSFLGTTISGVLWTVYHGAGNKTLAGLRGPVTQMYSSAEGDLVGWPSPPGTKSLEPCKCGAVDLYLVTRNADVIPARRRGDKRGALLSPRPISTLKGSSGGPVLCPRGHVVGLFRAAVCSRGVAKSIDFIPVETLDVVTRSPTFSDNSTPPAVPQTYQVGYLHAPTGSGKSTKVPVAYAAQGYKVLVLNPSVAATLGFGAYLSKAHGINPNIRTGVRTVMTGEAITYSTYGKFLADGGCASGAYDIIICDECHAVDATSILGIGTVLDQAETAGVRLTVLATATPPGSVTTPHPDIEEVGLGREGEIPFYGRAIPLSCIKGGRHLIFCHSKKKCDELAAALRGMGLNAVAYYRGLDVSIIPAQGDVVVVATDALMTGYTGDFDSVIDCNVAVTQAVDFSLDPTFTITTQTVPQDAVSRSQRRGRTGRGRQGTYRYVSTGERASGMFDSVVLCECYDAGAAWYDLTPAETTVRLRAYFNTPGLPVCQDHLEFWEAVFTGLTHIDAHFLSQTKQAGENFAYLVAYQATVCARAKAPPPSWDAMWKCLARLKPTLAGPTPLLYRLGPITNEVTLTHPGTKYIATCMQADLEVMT
- protocol.description: filter binding; 3 mM Mg2+; (stopped-flow kon 59 uM-1 s-1, Fig 2A); 25 mM MOPS-NH4+ pH 6.5, 3 mM MgCl2, 30 mM NaCl, 1% glycerol, 2 mM DTT, 0.1% Triton X-100; filter binding 37 C, 0.5 nM RNA, Hill fit; stopped flow 25 C
- test.conditions: protein: recombinant; tags: His6-SUMO removed (native N terminus); 5' Cy3 top strand via C3 amino linker (stopped flow); 3' overhang 18 nt on strand 1
pKd: −log10 of the molar value.
observation.type: pKd

> print(dat)
                                     binder  endpoint.result
1  12bp/18-OH (dsRNA) RNA 1: CGGCAGCGAGGCAGAGGAGCAGAGGGAGCA RNA 2: GCCUCGCUGCCG             8.18
